system: Saccharomyces cerevisiae; experiment: protein stability index of tFT-peptide fusion (C-terminal peptide) (PSI (0-1 scale)); higher = more stable (slower turnover); settings: genetic background: wild type; temperature: 30 C;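 note: PSI is a weighted mean of sequencing reads over stability bins, variants kept only with over 10 reads, mCherry proximal and sfGFP distal, peptide attached via GGGS linker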
Dear colleague, classification is by protein stability index, with ranges listed here: class 1 (below 0.2), class 2 (0.2 to below 0.4), class 3 (0.4 or more)

IN: Looking at TLNKDILIIKCA , which class would you pick?
OUT: class 1

IN: Please let me know in which category the item GGFLLRGLFLFL belongs.
OUT: class 3

IN: # classify by protein stability index band: SVLLVFRFFWEL
OUT: class 2

IN: Bin this entry: WFSVFTMSILSR
OUT: class 2

IN: Entry RLSLCLAVLFLV belongs to which category?
OUT: class 1

IN: Form: Item = SLSPVFVAVWFL ; Class = ?
OUT: class 2

IN: Looking at CFVPFFLPLCAF , which class would you pick?
OUT: class 1

IN: Which protein stability index category applies to GTRAGNPDRQRS here?
OUT: class 3

IN: Kindly identify the class of SFVGCWFVLLVR .
OUT: class 1

IN: For this sequence, which bin applies? ICSRCLVTVLSC
OUT: class 2

IN: Would you mind sorting FNMLFVVRLLYM into the appropriate category?
OUT: class 2

IN: Categorize the following entry: ASICAFFCWFLV
OUT: class 2

IN: Lab note: sort NRFRLFRLNFSV into the matching protein stability index band.
OUT: class 1

IN: Into which category would you place LPLQPPPPVCLP ?
OUT: class 3

IN: Where would LKCFLVLTFWFS land among the classes by reported protein stability index?
OUT: class 1

IN: Exercise: read the entry FLAPPFLPPPPA and state which class it falls under.
OUT: class 3

IN: Record FFALYGHILGLF — which class?
OUT: class 3

IN: Hi, small favor: classify VAWCVWCWWWAV by its protein stability index when you get a moment.
OUT: class 1

IN: For IFAWPFSATIPW , which protein stability index bin applies?
OUT: class 3

IN: For LPVPARPFPPSS , which protein stability index bin applies?
OUT: class 3

IN: Looking at WFFTDIVMLVRV , which class would you pick?
OUT: class 1

IN: Band of LSRFGSTCPSGL ?
OUT: class 3

IN: Which bin should I file VGYHCIVGVIFL under?
OUT: class 2

IN: Which class is correct for the following sequence? PTYTKYRTRQIN
OUT: class 1

IN: Class (by measured protein stability index) for CVFCRVAVGVDG
OUT: class 3

IN: Which category fits this record: SCLSLALLVFFG
OUT: class 2

IN: State the class of the sequence shown: FFLFILYFGSCF
OUT: class 2

IN: Assign a bin to MSQVRYQRATRA
OUT: class 3

IN: Which bin, given its protein stability index, does WEISNFFGCFIG occupy?
OUT: class 2

IN: Determine which band this sequence sits in: RLLLLPGPLALQ
OUT: class 3

IN: Please report the category associated with YIFLLRFFFFFS , nothing else.
OUT: class 2

IN: Band of FLVLFYCTFWVR ?
OUT: class 2

IN: Hi there! Could you help me figure out the category for FGVLLLFLFFLP please?
OUT: class 2

IN: Which band does FCASCLVCFIYL fall in?
OUT: class 3

IN: Category of VFVGWVLCVVGG :
OUT: class 1

IN: Which protein stability index category applies to FFVLGPVVMSIH here?
OUT: class 2

IN: Each sequence maps to one class by protein stability index. Which class for FASALAPLSAVA ?
OUT: class 2

IN: Bin? FCLMLWGAVLFL
OUT: class 2

IN: Band of LIVFSGFLFLLS ?
OUT: class 2

IN: Tag the class for SPCFLDPPRLIS
OUT: class 2

IN: Which class holds SYGNGIPIRMLH ?
OUT: class 2

IN: Please let me know in which category the item FRCFVLPYFGRF belongs.
OUT: class 2

IN: Band assignment needed for GVVVGVLLVCGW please.
OUT: class 2

IN: Sort into band: LRLLSLIPPLSC
OUT: class 2

IN: // bin(item) where item = VPSMSIVWCRVL
OUT: class 1

IN: Bin? YFFFYFFLLFHL
OUT: class 2

IN: Lab log: VLGRCWWIVSDL — assign protein stability index category
OUT: class 3

IN: Which class does SFWLFSSIGVCF fall in?
OUT: class 3

IN: Class? Entry: RFWFTFYLIAVF
OUT: class 1

IN: Record VFGFLVFYVCVR — which class?
OUT: class 1

IN: Class? Entry: LLVSVVFVSRFF
OUT: class 2

IN: // return the class label for FYPLPASIPDFA
OUT: class 3

IN: Form field 'band' for CFRRPLLRVVLT
OUT: class 3

IN: Hi there! Could you help me figure out the category for IFVLLSYYPLFV please?
OUT: class 2

IN: Form: Item = LVFFLFFFRCFS ; Class = ?
OUT: class 2

IN: Please classify: FHRSVVRLWLRN
OUT: class 1

IN: Using the reported protein stability index, which band applies to VFSRVLSVLLSA ?
OUT: class 2

IN: Place this sequence in its band: LRFSLLRVGWLC
OUT: class 2

IN: Using the reported protein stability index, which band applies to GVVCWLVVTGFL ?
OUT: class 2

IN: Hey, which category is CLWLRCIVSILP in, do you know?
OUT: class 1

IN: Input WVYVFVSLFFVV ; output its category
OUT: class 1

###

Exercise: for every item that follows, state its recorded protein stability index.
system: Saccharomyces cerevisiae; assay: protein stability index of tFT-peptide fusion (C-terminal peptide) (PSI (0-1 scale)); higher = more stable (slower turnover); conditions: genetic background: wild type; temperature: 30 C
Answer field: number only, no words.

IN: Param item = RVKFIEQASRFV ; retrieve measured protein stability index.
OUT: 0.764

IN: Value lookup for protein stability index; key = PPPFRPPPRLYS
OUT: 0.693

IN: Need protein stability index of KTKKRHKENRKE , thanks.
OUT: 0.791

IN: Data request, read-out protein stability index, for SSPPFPLSLPLY
OUT: 0.682

IN: Report protein stability index for MKPPRGRIVITG please.
OUT: 0.626

IN: Quick one: protein stability index of CFAFRPLLPSSP ?
OUT: 0.686

IN: Find the recorded protein stability index belonging to RGSVSCLQLIGC and report it.
OUT: 0.651

###

test system: Saccharomyces cerevisiae; assay: protein stability index of tFT-peptide fusion (C-terminal peptide) (PSI (0-1 scale)); higher = more stable (slower turnover); conditions: genetic background: wild type; temperature: 30 C
Assign protein stability index to each entry below.

IN: Any idea what protein stability index was measured for LHMVSCFLCSLW ?
OUT: 0.564

IN: Need protein stability index, item PLPLLPLPPLAP
OUT: 0.67

IN: Need protein stability index, item GVWCDIVLPGVM
OUT: 0.704

IN: I have this sequence here, TISVNLYLPDLL , and I need its recorded protein stability index.
OUT: 0.677

IN: What value of protein stability index has been reported for the following sequence? PSISSTSPLPRP
OUT: 0.633

IN: Would you kindly share the measured protein stability index for GPYPPFSPPPLS ?
OUT: 0.697

###

Kindly state protein stability index for each of the entries shown.
test system: Saccharomyces cerevisiae; assay: protein stability index of tFT-peptide fusion (C-terminal peptide) (PSI (0-1 scale)); higher = more stable (slower turnover); conditions: genetic background: wild type; temperature: 30 C

IN: So what protein stability index did KKNKQEKPKKPK get with Saccharomyces cerevisiae?
OUT: 0.698

IN: Lab request: please report protein stability index under test system Saccharomyces cerevisiae for LLSPQPPSSPLP
OUT: 0.69

IN: I'm curious: which protein stability index was measured for ELLPFPPPSAPT tested on Saccharomyces cerevisiae?
OUT: 0.719

###

system: Saccharomyces cerevisiae; assay: protein stability index of tFT-peptide fusion (C-terminal peptide) (PSI (0-1 scale)); higher = more stable (slower turnover); conditions: genetic background: cdc53-1; temperature: 37 C
measured.metric: protein stability index
Simply state the number, no unit and no words.

IN: Observed protein stability index on Saccharomyces cerevisiae for SSAPTIVIWRFS , please.
OUT: 0.724

IN: Any idea what protein stability index came out for RRPVHTHTSVSP on Saccharomyces cerevisiae?
OUT: 0.742

IN: Give recorded protein stability index with Saccharomyces cerevisiae for the following sequence: LYTFCSMDANPM
OUT: 0.439

IN: Which protein stability index is reported with Saccharomyces cerevisiae for this entry: VLVFYFCFSFCS ?
OUT: 0.282

IN: Under Saccharomyces cerevisiae: protein stability index value of LIVFSGFLFLLS ?
OUT: 0.53

IN: Look up protein stability index with Saccharomyces cerevisiae for this sequence: FVVWKDVLVMVR
OUT: 0.145

IN: Record PVILISWQLRCY : what is its protein stability index with Saccharomyces cerevisiae?
OUT: 0.0284

IN: Short answer please: protein stability index, Saccharomyces cerevisiae, entry KCEKGLYCCIAF
OUT: 0.68

IN: Quick check: protein stability index on Saccharomyces cerevisiae, item VALAVRVVVCGA ?
OUT: 0.0354

IN: Checklist item: protein stability index tested on Saccharomyces cerevisiae, entry SGMLVYFGTVCY , value?
OUT: 0.599

IN: Entry FFILVFFSLLST , system Saccharomyces cerevisiae: what protein stability index was measured?
OUT: 0.445

IN: Record VGVSVVMVVEVP : what is its protein stability index with Saccharomyces cerevisiae?
OUT: 0.0328

IN: Notebook entry, Saccharomyces cerevisiae assay: protein stability index of GRRPVVDFLPCL = ?
OUT: 0.722

IN: Item LSRFGSTCPSGL with Saccharomyces cerevisiae - protein stability index?
OUT: 0.77

IN: Please tell me: protein stability index of WFSVFTMSILSR , system Saccharomyces cerevisiae?
OUT: 0.479

IN: # value lookup — system Saccharomyces cerevisiae, readout protein stability index, item FFVFSFVLFFPL
OUT: 0.427

IN: # value lookup — system Saccharomyces cerevisiae, readout protein stability index, item VPSPWVFSLFLH
OUT: 0.689

IN: API: value(readout= protein stability index, system= Saccharomyces cerevisiae, query= RFWFTFYLIAVF )
OUT: 0.0779

IN: What protein stability index appears in the records for this sequence with Saccharomyces cerevisiae? FLFFWRASLFFW
OUT: 0.164

IN: Notebook entry, Saccharomyces cerevisiae assay: protein stability index of IFFYPFLIFCFV = ?
OUT: 0.281

IN: protein stability index of GLFCCFLCLSVF on Saccharomyces cerevisiae?
OUT: 0.297

IN: Entry SVLASFFSAFVC , system Saccharomyces cerevisiae: what protein stability index was measured?
OUT: 0.697

IN: # query: protein stability index | item FYPLPASIPDFA | system: Saccharomyces cerevisiae
OUT: 0.754

IN: Requested read-out protein stability index, target or system Saccharomyces cerevisiae, entry GMNGLFFIAMLG
OUT: 0.645
